# target_or_test_system: pooled human IgG (human IgG1, 2, 3 and 4)
readout_kind: Enzyme Activity Endpoint Assay: IgG (ng/µL)
One number for each entry, in ng/µL.

protein	unit_name	recorded_value
PRT-574 (protein) MANQEIRYSEETPKTITSVWTKGVTPPTDFIYNEDVLHAPYIANQGWYDITKTFNGKDDLLCGAATAGNMLHWWFDQNKEQIERYLKKHPEKQKINFNGEQMFDVKEAIDTKDSQTNSKLFEYFKDKAFPYLSTKHLGVFPDHVIDMFINGYRLSLTNHGPTPVKEQTKDPRGGIFDAVFTRGDQSKLLTSRHDFKEKTLNEISDLIKQELTEGKALGLSHTYANVRINHVINLWGADFDAEGNLEAIYVTDSDSNASIGMKKYYVGVNSAGKVAISAKEIEGDNIGAQVLGLFTLSTGKDIWEQTNLEHHHHHH	ng/µL	0

Field: Enzyme Activity Endpoint Assay: IgG. Fill in for each record below.
1. PRT-583 (protein) MANQEIRYSKAKPKVITSVWTKGVTPPTQFTKNEDVFHAPYLANQGWYDITKTFNGKDDLLCGAATAGNMLHWWFDQNKEQIERYLKKHPEKQKINFNGEQMFDVKEAIDTKDSQTNSKLFNYFKEKAFPYLSTKHLGVFPDHVIDMFINGYRLSLTNHGPTPVKEQNKDPRGGIFDDVFTRGDQSKLLTSRHDFKEKTLKEISDLIKQELKEGKALGLSHTYANVRINHVINLWGADFDAEGNLIAIYVTDSDSNASIGMKKYYVGVNSAGKVAISAKEIEDDNIGAQVLGLFTLSTGKDIWEKTNLEHHHHHH
2. PRT-483 (protein) MVTSVWTKGVTPPTDFIKGEDVFHAPYKAGQGWYDITKTFNGKDNLLCGAATAGNMLHWWFDQNKDQIEAYLKEHPEKQKIIFNNQELFDLKAAIDTKDDQTNSKLFEYFKEKAFPYLSTKHLGVFPDHVLDMFINGYRLSLTNHGPTPVKEGSKDKRGGIFDAVFTRGVQSKLLTSRHDLKNKTLKEISDLIKQELTEGKALALSHTYANVRINHVINLWGADFDSNGNLEAIYVTDSDTNASIGMKKYFVGVNSAGKVAISAKEIEDDNIGAQVLGLFTLSTGQDIWNQTNLEHHHHHH

[0, 0]

Batch: Enzyme Activity Endpoint Assay: IgG for all items listed.
1. PRT-463 (protein) MVTSVWTKGVTPPANFRKIVDGNIAYYHAPYVANQGWYDITKTFNGKDDLLCGAATAGNMLHWWFDQNKDQIERYLKEHPEKQKINFNGEQMFDVKEAIDTKDSQTDSKLFEYFKEKAFPYLSTKHLGVFPDHVLDMFINGYRLSLTNHGPTPVKEGSKDPRGGIFDAVFTRGDQSKLLTSRHDLKNKTLKEISDLIKQELTEGKALGLSHTYANVRINHVINLWGADFDSEGNLKAIYVTDSDSNASIGMKKYFVGVNSAGKVAISAKEIKEDNIGAQVLGLFTLSTGQDIWNQTNLEHHHHHH
2. PRT-534 (protein) MANQEIRYSSDSEWANKKVWVYGITPPEEGAWKYSTYYLPWKKEYGWYDCNKRNPTADGMMCWAATASNLLHWWIAQNKEYIDLYGDKYKGPDKINFNGEQMFDVKEYIDPLDKPQESDIFQCFIDKSFADLSTKHEAGYGDAGINWFIHGIIPSSPAHGPTPVKLDYPYNPAGYFKDVFPRGDGVVLLGNNGDFKELSKERFNETIKDALKNKKAIGLSIGPVNVRSSHVVTIWGAEFDENGDVSYIYMADNNDNWGVGCIRYQIVYEEGGTYTCYKTEIIPSDRPIPINRLVTLELGEEYWKQTNLEHHHHHH
3. PRT-693 (protein) MQITSVWTKGVIPPTPEQFRYNNEDVIHAPYLPNQGWYDITKTFNGGDNLLCGAATAGNMLHWWFDQNKTEIEAYLSKYPEKQKIIFNNQELFDLRAAINTKDSQTNSQLFNYFRDKAFPNLSARQLGVMPDLVLDMFINGYYLNVFKTQSTDVNRPYQDRDKRGGIFDHVFGRGDQTTLLTARHDLKNGTLNDISTLIKQELQSGKALALSHTYANVSISHVINLWGADFNAEGNLEAIYVTDSDANSSIGMKKYYVGVNAHGKVAISAKKIEGENIGAQVLGLFTLSSGKEIWQKLSLEHHHHHH
4. PRT-596 (protein) MANQEIRYSEETPSTITSVWTKGVTPPTDFIQNEDVLHAPYIANQGWYDITKTFNGKDDLLCGAATAGNMLHWWFDQNKEQIENYLKKHPEKQKINFNGEQMFDVKEAIDTKDSQTDSALFEYFKDKAFPYLSTKHLGVFPDHVIDMFINGYRLSLTNHGPTPVKRGTKDPRGGIFDAVFTRGDQSKLLTSRHDFKEKTLNEISDLIKKELTEGKALGLSHTYANVRINHVINLWGADFNAEGNLEAIYVTDSDSNASIGMKKYYVGVNSAGKVAISAKEIEGDNIGAQVLGLFTLSTGQDIWNQTNLEHHHHHH
5. PRT-391 (protein) MVTSVWTKGVTPPTNFTYGEDVLHAPYVANQGWYDITKTFNGKDDLLCGAATAGNMLHWWFDQNKEQIENYLKKHPEKQKINFNGEQMFDVKEAIDTKDSQLDSKLFEYFKEKAFPYLSTKHLGVFPDHVIDMFINGYRLSLTNHGPTPVKRGSKDKRGGIFDAVFTRGDQSKLLTNRHDFKEKTLKEISDLIKQELTEGKALGISHTYANVRINHVINLWGADFDAEGNLEAIYVTDSDSNASIGMKKYFVGVNSNGKVAISAKEIEEDNIGAQVLGLFTLSTGQDIWNQTN

1: 0; 2: 1380; 3: 0; 4: 0; 5: 29
